Data provenance: ChEMBL document CHEMBL1201862

- TARGET_UNDER_TEST: Cysteine protease ATG4B (Homo sapiens, UniProt Q9Y4P1);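 also: Fluorescence-based dose-response confirmation assay measuring inhibition of ATG4B activity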
- Sequence (Q9Y4P1 whole entry): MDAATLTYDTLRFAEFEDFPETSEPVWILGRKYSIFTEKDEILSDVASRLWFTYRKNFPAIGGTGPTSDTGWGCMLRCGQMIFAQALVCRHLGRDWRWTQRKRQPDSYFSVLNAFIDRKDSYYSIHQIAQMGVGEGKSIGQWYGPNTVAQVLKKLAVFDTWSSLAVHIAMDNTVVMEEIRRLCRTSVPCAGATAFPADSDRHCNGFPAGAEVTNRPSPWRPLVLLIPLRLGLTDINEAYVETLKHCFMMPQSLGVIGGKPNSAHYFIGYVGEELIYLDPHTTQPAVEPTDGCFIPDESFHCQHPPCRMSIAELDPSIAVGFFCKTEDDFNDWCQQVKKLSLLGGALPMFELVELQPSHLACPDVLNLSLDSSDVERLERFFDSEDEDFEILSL
- Type: functional
The source made the active and inactive calls.
READOUT_KIND: IC50

The cases that follow already have their IC50 on record.
CCCc1ccc(OC(=O)c2cccs2)cc1	10.7 µM (active)
O=C(CSc1nc2ccccc2c(=O)n1-c1ccc(Cl)cc1)N/N=C/C=C/c1ccccc1[N+](=O)[O-]	8.92 µM (active)

Record summary for Clc1ccccc1CN1CCN(c2ccccc2Cl)CC1 : reported IC50 = 11.5 µM (active)

The compound identified as C=C(C)Cn1c(SCC(=O)N/N=C/c2c(O)ccc3ccccc23)nc2ccccc2c1=O registered its IC50 at 13.3 µM (active)

Entry under test: O=c1cc(O)[nH]c2c1sc1nc(C(F)(F)F)c3c(c12)CCCCC3 . Its IC50 was 11.1 µM (active)

* * *

- ASSAY_COMMENT: Trypanosoma cruzi growth suppression in host cells – NIH3T3 host cells, beta-gal luminescence, confirmation (AID 2044);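 also: intracellular parasites grown in NIH/3T3 mouse fibroblasts as host cells; luminescent beta-galactosidase reporter signal from transgenic T. cruzi replicating inside host cells; inhibitors lower the luminescence signal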
- Type: functional, cell-based
Activity calls are given as the source filed them.
READOUT_KIND: EC50

Clc1ccc(OCCCCCN2CCCC2)c(Br)c1	231 nM (active)

Measured EC50 of CCCN(CCC)C(=O)c1cc([N+](=O)[O-])cc2c1-c1ccc([N+](=O)[O-])cc1C2=C(C#N)C#N : 1620 nM (active)

// sample Cc1ccc(-c2cc(C(F)F)n3ncc(C(=O)N4CCN(c5ccccn5)CC4)c3n2)cc1 , its EC50 was 500 nM (active)

Noted for CCC(C)C(=O)Nc1nc(C)c(-c2csc(Nc3ccc(Cl)cc3)n2)s1 (stereo not drawn) : its EC50 reads 1750 nM (active)

For O=C(Nc1ccc2ccccc2c1)c1cn(-c2ccccc2)nc1-c1cccs1 the compound record lists EC50 as 1860 nM (active)

* * *

IC50 overview
- TARGET_UNDER_TEST: 26S proteasome non-ATPase regulatory subunit 14 (Homo sapiens, UniProt O00487)
- Sequence (O00487 whole entry): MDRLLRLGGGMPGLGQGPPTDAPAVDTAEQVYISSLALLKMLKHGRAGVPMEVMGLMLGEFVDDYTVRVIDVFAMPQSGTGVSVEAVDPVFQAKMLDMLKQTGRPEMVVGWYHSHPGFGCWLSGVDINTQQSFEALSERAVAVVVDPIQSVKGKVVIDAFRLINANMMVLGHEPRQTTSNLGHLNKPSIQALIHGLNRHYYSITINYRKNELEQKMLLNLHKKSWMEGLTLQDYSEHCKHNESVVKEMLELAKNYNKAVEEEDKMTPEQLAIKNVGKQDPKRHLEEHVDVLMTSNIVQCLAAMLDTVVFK
- ASSAY_COMMENT: inhibition of proteasome subunit RPN11 – biochemical, fluorescence polarization, uHTS hits, confirmation (AID 602368)
- Assay type: functional
Calls of active or inactive are those of the source.

C=CCn1c(SCC(=O)Nc2ccc(-c3nc4ccc(C)cc4s3)cc2)nnc1-c1ccccc1	23.7 µM (active)
O=C1/C(=C/c2ccc(O)c(O)c2)Oc2cc(O)ccc21 [SULFURETIN]	23.8 µM (active)
Cc1cc(/C=C(/C#N)c2nc3ccccc3[nH]2)c(C)n1-c1ccccc1C(=O)O	26.2 µM (active)
CC1=Nc2ccccc2/C1=C\c1nc(-c2ccccc2)oc1O	4.18 µM (active)

Here is another molecule to look at.
The molecule identified as O=[N+]([O-])c1ccc(N2CCCCC2)s1 registered its IC50 at 36.1 µM (active)

* * *

- ASSAY_COMMENT: viability of uninfected HEp-2 cells – cell-based, HTS, cytotoxicity control for RSV inhibitor project, dose response (AID 2410)
- Assay type: functional
- TEST_SETTINGS: human respiratory syncytial virus
Activity calls are given as the source filed them.
READOUT_KIND: CC50

Use these answered entries as a reference point.
COc1ccc(-c2cc3nc(-c4ccccc4)cc(N4CCC(O)CC4)n3n2)cc1	17 µM (active)
CCOc1ccccc1-n1c(SCC(=O)Nc2ccc(CC)cc2)nc2nnc(C)c-2c1N	45.1 µM (active)
COc1ccc(CN2CC[C@H]3C=CC[C@@H](C(=O)Nc4ccc(Cl)c(C(F)(F)F)c4)[C@H]3C2=O)cc1OC	42.4 µM (active)
CCCCCc1nc2c(c(=O)c3ccccc3n2C)c(=O)n1Cc1ccc(OC)cc1	> 50 µM (active)
COc1cccc(C(c2nnnn2Cc2ccco2)N2CCN(c3cccc(C)c3C)CC2)c1OC (stereo unspecified)	18.5 µM (active)

Note to self: CC50 recorded for Cc1noc(C)c1COC(=O)c1cccc(N(C)C)c1 was 11.9 µM (active)
